System: Artificial Luciferase 16 (ALuc16)
Construct: designed artificial luciferase; recombinant for the kinetics; cDNA in pcDNA3.1(+) for cell work
Assay: bioluminescence, Lineweaver-Burk
Format: biochemical, synthetic construct
Conditions: 50 mM HEPES, pH 7.2; 0.1 µM luciferase
Each record is given 1 (yes) if its reported Km is strictly below 90 µM. Records at or above 90 µM are given 0 (no).

Worked cases, answers included:
MOLECULE: Oc1ccc(Cc2nc3c(Cc4ccccc4)nc(-c4ccc(O)cc4)cn3c2O)cc1 [CTZ, coelenterazine]
MEASURED ON: Artificial Luciferase 16 (ALuc16)
QUALITATIVE LABEL: 1 (yes)
--
MOLECULE: CN(C)c1ccc(/C=C/C=C/C=C/c2cn3c(=O)c(Cc4ccccc4)nc-3c(-c3ccccc3)[nH]2)cc1 [2d]
MEASURED ON: Artificial Luciferase 16 (ALuc16)
QUALITATIVE LABEL: 1 (yes)
--
MOLECULE: O=c1c(Cc2ccccc2)nc2c(-c3ccccc3)[nH]c(-c3ccncc3)cn1-2 [3c]
MEASURED ON: Artificial Luciferase 16 (ALuc16)
QUALITATIVE LABEL: 1 (yes)
--
MOLECULE: CN(C)c1ccc(/C=C/C=C/c2cn3c(=O)c(Cc4ccc(O)cc4)nc-3c(Cc3ccccc3)[nH]2)cc1 [1c]
MEASURED ON: Artificial Luciferase 16 (ALuc16)
QUALITATIVE LABEL: 1 (yes)
--
MOLECULE: CN(C)c1ccc(/C=C/C=C/c2cn3c(=O)c(Cc4ccccc4)nc-3c(-c3ccccc3)[nH]2)cc1 [2c]
MEASURED ON: Artificial Luciferase 16 (ALuc16)
QUALITATIVE LABEL: 0 (no)
--
MOLECULE: CN(C)c1ccc(/C=C/C=C/C=C/c2cn3c(=O)c(Cc4ccc(O)cc4)nc-3c(Cc3ccccc3)[nH]2)cc1 [1d]
MEASURED ON: Artificial Luciferase 16 (ALuc16)
QUALITATIVE LABEL: 1 (yes)

I wonder whether O=c1c(Cc2ccccc2)nc2c(-c3ccccc3)[nH]c(-c3ccccc3)cn1-2 [3d] has Km below 90 µM. Can you tell?
0 (no)

I wonder whether CN(C)c1ccc(/C=C/c2cn3c(=O)c(Cc4ccc(O)cc4)nc-3c(Cc3ccccc3)[nH]2)cc1 [1b] has Km below 90 µM. Can you tell?
1 (yes)
